target: Human TRPV3 (Homo sapiens); experiment: Screening for TRPV3 antagonist using the 45Calcium uptake assay (inhibition of 2-APB induced cellular uptake of radioactive calcium); details: human TRPV3 expressing CHO cells; 2-APB 500 μM; class symbols
Endpoint Label: IC50

Illustrative cases are given below, each with its answer.
COc1cccc(/C=C/c2nc3sccn3c(=O)c2-c2ccc(C#N)cc2)c1OC1CCCC1: < 250 nM
COc1cccc(/C=C/c2nc3sccn3c(=O)c2-c2ccc(OC(F)(F)F)cc2)c1OCCCCF: 250 to 500 nM
CCCCOc1c(/C=C/c2nc3sccn3c(=O)c2-c2ccc(OC(F)(F)F)cc2)cccc1OC: < 250 nM
COc1cccc(/C=C/c2nc3sccn3c(=O)c2-c2ccc(C(F)(F)F)cc2)c1OCC(C)C: < 250 nM
COc1cccc(/C=C/c2nc3sccn3c(=O)c2-c2ccc(C#N)cc2)c1OCC1CC1: 500 to 1000 nM
COc1cccc(/C=C/c2nc3sccn3c(=O)c2-c2ccc(C#N)cc2)c1OCCC(C)C: < 250 nM

// switching to the query compound
Fill in IC50 for COc1cccc(/C=C/c2nc3sccn3c(=O)c2-c2ccc(OC(F)(F)F)cc2)c1OCCC(F)(F)F tested with Human TRPV3 (Homo sapiens). < 250 nM

* * *

The reader will find reported inhibition at 1 µM values listed item by item below.
target: Human TRPV3 (Homo sapiens, UniProt Q8NET8); construct: expressed in transfected cells; host or cells: CHO cells (G-418 selection); assay: Screening for TRPV3 antagonist using the 45Calcium uptake assay (inhibition of 2-APB induced cellular uptake of radioactive calcium); assay type: cell-based; settings: 1.0 μM test compound; human TRPV3 expressing CHO cells; 2-APB 500 μM; read-out: Percentage inhibition at 1.0 μM
Sequence (Q8NET8 whole entry): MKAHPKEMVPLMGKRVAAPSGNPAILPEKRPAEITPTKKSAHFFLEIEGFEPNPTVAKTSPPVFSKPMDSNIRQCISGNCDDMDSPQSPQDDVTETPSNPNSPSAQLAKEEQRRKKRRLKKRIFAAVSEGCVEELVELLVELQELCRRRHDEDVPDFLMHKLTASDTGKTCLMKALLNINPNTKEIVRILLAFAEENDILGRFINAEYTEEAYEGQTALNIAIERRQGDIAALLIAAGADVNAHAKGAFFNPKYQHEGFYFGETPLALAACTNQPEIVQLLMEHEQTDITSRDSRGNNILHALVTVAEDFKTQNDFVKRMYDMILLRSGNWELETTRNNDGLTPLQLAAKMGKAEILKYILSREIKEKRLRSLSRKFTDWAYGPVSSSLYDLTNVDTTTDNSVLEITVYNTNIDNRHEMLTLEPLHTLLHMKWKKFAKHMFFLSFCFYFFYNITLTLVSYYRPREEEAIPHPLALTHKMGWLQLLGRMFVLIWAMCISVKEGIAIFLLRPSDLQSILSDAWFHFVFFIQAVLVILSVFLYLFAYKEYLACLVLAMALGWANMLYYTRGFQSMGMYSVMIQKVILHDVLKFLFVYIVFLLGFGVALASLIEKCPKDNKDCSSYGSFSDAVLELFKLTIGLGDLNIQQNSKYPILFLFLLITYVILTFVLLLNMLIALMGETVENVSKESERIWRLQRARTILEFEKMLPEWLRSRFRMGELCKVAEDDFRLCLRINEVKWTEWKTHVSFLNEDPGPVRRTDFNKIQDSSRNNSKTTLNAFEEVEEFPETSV
Your answer is read as %, so omit the unit and give the number.

Illustrative cases are given below, each with its answer.
COCCOc1c(/C=C/c2nc3sccn3c(=O)c2-c2ccc(OC(F)(F)F)cc2)cccc1OC: 79.2
COc1cccc(/C=C/c2nc3sc(C)c(C)n3c(=O)c2-c2ccc(OC(F)(F)F)cc2)c1OCC1CC1: 24.7
COc1cccc(/C=C/c2nc3sccn3c(=O)c2-c2ccc(C#N)cc2)c1OCC(C)C: 74.7
COc1ccc(-c2c(/C=C/c3cccc(OC)c3OCC3CC3)nc3sccn3c2=O)cc1: 63.4
COc1cccc(/C=C/c2nc3sccn3c(=O)c2-c2ccc(OC(F)(F)F)cc2)c1OCC1CCCCC1: 61.1

Fill in inhibition at 1 µM for COc1cccc(/C=C/c2nc3sccn3c(=O)c2-c2ccc(C(F)(F)F)cc2)c1OCC(C)(C)C tested with Human TRPV3 (Homo sapiens, UniProt Q8NET8). 86.5

Fill in inhibition at 1 µM for COc1cccc(/C=C/c2nc3sccn3c(=O)c2-c2ccc(C(F)(F)F)cc2)c1OCCC(C)C tested with Human TRPV3 (Homo sapiens, UniProt Q8NET8). 59.7

Fill in inhibition at 1 µM for O=c1c(-c2ccc(OC(F)(F)F)cc2)c(/C=C/c2cccc(F)c2OCC2CC2)nc2sccn12 tested with Human TRPV3 (Homo sapiens, UniProt Q8NET8). 41.3

* * *

Target: Human TRPV3 (Homo sapiens, UniProt Q8NET8)
Construct: expressed in transfected cells; host or cells: CHO cells (G-418 selection)
Assay: Screening for TRPV3 antagonist using the 45Calcium uptake assay (inhibition of 2-APB induced cellular uptake of radioactive calcium)
Format: cell-based
Conditions: 1.0 μM test compound; human TRPV3 expressing CHO cells; 2-APB 500 μM
Protocol: The illustrative examples of the present invention are screened for TRPV3 activity according to a modified procedure described in Tóth, A., Kedei, N., Wang, Y. and Blumberg, P. M. Life Sciences (2003), 73, 487-498. […] The inhibition of TRPV3 receptor activation was followed as inhibition of 2-aminoethoxydiphenylborate (2-APB) induced cellular uptake of radioactive calcium. […] Radioactivity in the lysate was measured in Packardt Top count after addition of liquid scintillant. […]
Classify as follows. Reported Percentage inhibition at 1.0 μM greater than or equal to 30%: MET. Reported Percentage inhibition at 1.0 μM below: NOT MET.

Given the entry COc1cccc(/C=C/c2nc3sc4ccccc4n3c(=O)c2-c2ccc(C#N)cc2)c1OCCC(C)C , answer whether its Percentage inhibition at 1.0 μM meets or surpasses 30%. MET

Given the entry COc1cccc(/C=C/c2nc3sc4ccccc4n3c(=O)c2-c2ccc(C#N)cc2)c1OCC1CCC1 , answer whether its Percentage inhibition at 1.0 μM meets or surpasses 30%. NOT MET

Given the entry COc1cccc(/C=C/c2nc3sccn3c(=O)c2-c2ccc(F)nc2)c1OCC1CC1 , answer whether its Percentage inhibition at 1.0 μM meets or surpasses 30%. NOT MET

Given the entry COc1cccc(/C=C/c2nc3sccn3c(=O)c2-c2ccc(C#N)cc2)c1OCCCC#N , answer whether its Percentage inhibition at 1.0 μM meets or surpasses 30%. NOT MET

Given the entry COc1cccc(/C=C/c2nc3sc4ccccc4n3c(=O)c2-c2ccc(C#N)cc2)c1OCC1CC1 , answer whether its Percentage inhibition at 1.0 μM meets or surpasses 30%. MET

Given the entry O=c1c(-c2ccc(OC(F)(F)F)cc2)c(/C=C/c2cccc(O)c2O)nc2sccn12 , answer whether its Percentage inhibition at 1.0 μM meets or surpasses 30%. NOT MET

Given the entry COc1cccc(/C=C/c2nc3sccn3c(=O)c2-c2ccc(C(C)=O)cc2)c1OCC1CC1 , answer whether its Percentage inhibition at 1.0 μM meets or surpasses 30%. MET

Given the entry O=c1c(-c2ccc(OC(F)(F)F)cc2)c(/C=C/c2cccc(O)c2OCC2CC2)nc2sccn12 , answer whether its Percentage inhibition at 1.0 μM meets or surpasses 30%. MET

Given the entry CCCCOc1c(/C=C/c2nc3sc4ccccc4n3c(=O)c2-c2ccc(C#N)cc2)cccc1OC , answer whether its Percentage inhibition at 1.0 μM meets or surpasses 30%. MET

Given the entry COc1cccc(/C=C/c2nc3sccn3c(=O)c2-c2ccc(C#N)cc2)c1OCc1ccccn1 , answer whether its Percentage inhibition at 1.0 μM meets or surpasses 30%. NOT MET

Given the entry COc1cc(/C=C/c2nc3sc4ccccc4n3c(=O)c2-c2ccc(C(F)(F)F)cc2)ccc1OCCCC#N , answer whether its Percentage inhibition at 1.0 μM meets or surpasses 30%. NOT MET

Given the entry COc1cccc(/C=C/c2nc3sccn3c(=O)c2-c2ccc(C#N)cc2)c1OC1CCCC1 , answer whether its Percentage inhibition at 1.0 μM meets or surpasses 30%. MET

Given the entry CCOCCOc1c(/C=C/c2nc3sc4ccccc4n3c(=O)c2-c2ccc(C(F)(F)F)cc2)cccc1OC , answer whether its Percentage inhibition at 1.0 μM meets or surpasses 30%. NOT MET

Given the entry COc1cccc(/C=C/c2nc3sccn3c(=O)c2-c2ccc(C#N)cc2)c1OCc1cccc(F)c1 , answer whether its Percentage inhibition at 1.0 μM meets or surpasses 30%. MET

Given the entry COc1cccc(/C=C/c2nc3sc4ccccc4n3c(=O)c2-c2ccc(C#N)cc2)c1OCCCC#N , answer whether its Percentage inhibition at 1.0 μM meets or surpasses 30%. NOT MET

Given the entry COCCOc1c(/C=C/c2nc3sc4ccccc4n3c(=O)c2-c2ccc(C(F)(F)F)cc2)cccc1OC , answer whether its Percentage inhibition at 1.0 μM meets or surpasses 30%. NOT MET

* * *

target: Human TRPV3 (Homo sapiens); construct: expressed in transfected cells; host or cells: CHO cells (G-418 selection); assay: Screening for TRPV3 antagonist using the 45Calcium uptake assay (inhibition of 2-APB induced cellular uptake of radioactive calcium); format: cell-based; settings: 1.0 μM test compound; human TRPV3 expressing CHO cells; 2-APB 500 μM
Endpoint Label: Percentage inhibition at 1.0 μM (%)
Your answer is read as %, so omit the unit and give the number.

COc1cccc(/C=C/c2nc3sccn3c(=O)c2-c2ccc(C(F)(F)F)cc2)c1OCc1ccccn1: 11.2
COc1cccc(/C=C/c2nc3sccn3c(=O)c2-c2ccc(OC(F)(F)F)cc2)c1OCCCCF: 80.9

Quick one: give measured Percentage inhibition at 1.0 μM for COc1cccc(/C=C/c2nc3sccn3c(=O)c2-c2cc(F)cc(F)c2)c1OCC1CC1 2.0

Quick one: give measured Percentage inhibition at 1.0 μM for COc1cccc(/C=C/c2nc3sc4ccccc4n3c(=O)c2-c2ccc(C#N)cc2)c1OCc1ccccn1 51.24

Quick one: give measured Percentage inhibition at 1.0 μM for CCOCCOc1c(/C=C/c2nc3sccn3c(=O)c2-c2ccc(C(F)(F)F)cc2)cccc1OC 89.3

Quick one: give measured Percentage inhibition at 1.0 μM for CCOCCOc1cccc(/C=C/c2nc3sccn3c(=O)c2-c2ccc(OC(F)(F)F)cc2)c1OCC1CC1 30.6

Quick one: give measured Percentage inhibition at 1.0 μM for COc1cccc(/C=C/c2nc3sc4ccccc4n3c(=O)c2-c2ccc(C(F)(F)F)cc2)c1OCC1CC1 4.98

Quick one: give measured Percentage inhibition at 1.0 μM for COc1cccc(/C=C/c2nc3sccn3c(=O)c2-c2ccc(C(F)(F)F)cc2)c1OCCCC#N 45.2
